- METHOD: Half life in B10.R3 mouse at 1 mg/kg, iv
- Format: ADME, organism-based
- Parameters: dose 1 mg/kg, route intravenous
- PROTOCOL CONDITIONS: in vivo

>  <GIVEN SMILES>
CC(C)(C[C@@](O)(Cc1cc2ccc(C#N)cc2[nH]1)C(F)(F)F)c1cc(S(C)(=O)=O)cc2c1OCC2

>  <half-life, h>
2.5

$$$$

---

- TARGET: UniProtKB P04150
- Sequence (P04150 whole entry): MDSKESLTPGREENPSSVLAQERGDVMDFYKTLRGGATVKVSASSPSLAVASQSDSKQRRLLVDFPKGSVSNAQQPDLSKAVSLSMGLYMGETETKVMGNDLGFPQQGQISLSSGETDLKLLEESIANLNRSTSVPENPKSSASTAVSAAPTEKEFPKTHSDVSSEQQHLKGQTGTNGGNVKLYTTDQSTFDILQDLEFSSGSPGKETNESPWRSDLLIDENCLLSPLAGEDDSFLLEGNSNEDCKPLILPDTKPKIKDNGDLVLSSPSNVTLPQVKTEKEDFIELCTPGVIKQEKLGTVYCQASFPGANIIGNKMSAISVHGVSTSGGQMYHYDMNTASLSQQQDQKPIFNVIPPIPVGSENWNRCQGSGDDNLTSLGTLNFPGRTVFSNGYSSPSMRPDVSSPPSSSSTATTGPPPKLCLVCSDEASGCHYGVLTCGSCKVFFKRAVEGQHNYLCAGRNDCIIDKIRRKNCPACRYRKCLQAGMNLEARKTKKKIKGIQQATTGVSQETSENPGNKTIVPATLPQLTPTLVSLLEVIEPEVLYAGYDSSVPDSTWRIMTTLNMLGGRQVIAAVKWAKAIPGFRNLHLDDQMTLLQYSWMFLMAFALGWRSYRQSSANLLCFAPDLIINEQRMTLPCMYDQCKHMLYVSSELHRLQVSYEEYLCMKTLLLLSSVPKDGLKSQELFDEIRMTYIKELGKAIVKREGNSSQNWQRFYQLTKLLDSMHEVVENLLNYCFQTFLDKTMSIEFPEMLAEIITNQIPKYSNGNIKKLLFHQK
- METHOD: Transactivation activity of glucocorticoid receptor in HFF assessed as induction of aromatase activity by measuring beta-estradiol activity after 18 to 24 hrs by ELISA
- PROTOCOL CONDITIONS: read-out: EC50
This section presents compounds with their documented EC50 values.

>  <COMPOUND>
COc1ccc(F)cc1C(C)(C)CC(O)(Cc1cc2ccccc2[nH]1)C(F)(F)F (racemic)

>  <EC50, nM>
23

$$$$
>  <COMPOUND>
CC(C)(CC(O)(Cc1cc2ccccc2[nH]1)C(F)(F)F)c1cc(Br)cc2c1OCC2 (racemic)

>  <EC50, nM>
45

$$$$
>  <COMPOUND>
Cc1cc2c(c(C(C)(C)CC(O)(Cc3cc4ccccc4[nH]3)C(F)(F)F)c1)OCC2 (racemic)

>  <EC50, nM>
16

$$$$
>  <COMPOUND>
CC(C)(CC(O)(Cc1cc2ccccc2[nH]1)C(F)(F)F)c1cc(C#N)cc2c1OCC2 (racemic)

>  <EC50, nM>
356

$$$$

---

Documented Efficacy across a set of molecules
- TARGET: Glucocorticoid receptor (Homo sapiens) (UniProt P04150)
- Sequence (whole entry): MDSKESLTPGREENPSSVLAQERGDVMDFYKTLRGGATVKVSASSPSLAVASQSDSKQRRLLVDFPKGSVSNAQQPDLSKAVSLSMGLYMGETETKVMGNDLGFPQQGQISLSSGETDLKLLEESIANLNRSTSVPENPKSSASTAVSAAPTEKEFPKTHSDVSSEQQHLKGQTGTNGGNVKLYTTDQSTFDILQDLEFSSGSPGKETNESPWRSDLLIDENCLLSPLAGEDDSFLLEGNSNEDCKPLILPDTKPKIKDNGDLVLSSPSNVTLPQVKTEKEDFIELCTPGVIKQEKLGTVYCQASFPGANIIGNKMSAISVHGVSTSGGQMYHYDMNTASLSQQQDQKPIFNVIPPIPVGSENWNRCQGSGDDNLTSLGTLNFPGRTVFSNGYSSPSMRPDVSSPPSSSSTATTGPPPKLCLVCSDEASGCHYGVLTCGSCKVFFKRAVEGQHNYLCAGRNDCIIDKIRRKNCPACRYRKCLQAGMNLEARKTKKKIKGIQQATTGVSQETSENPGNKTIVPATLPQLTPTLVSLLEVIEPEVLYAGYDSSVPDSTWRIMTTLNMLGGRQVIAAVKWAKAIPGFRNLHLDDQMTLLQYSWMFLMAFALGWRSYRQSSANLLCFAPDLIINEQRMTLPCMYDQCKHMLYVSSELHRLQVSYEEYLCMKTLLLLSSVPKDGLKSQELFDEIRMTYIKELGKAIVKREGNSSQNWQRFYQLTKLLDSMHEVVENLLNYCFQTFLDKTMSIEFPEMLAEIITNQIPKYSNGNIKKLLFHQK
- METHOD: Agonist activity at glucocorticoid receptor in human HeLa cells transfected with luciferase gene linked to MMTV promoter assessed as luciferase transactivation activity relative to Dexamethasone
- Assay type: functional, cell-based
OUTCOME MEASURE: Efficacy (%)

>  <MOLECULE>
CC(C)(C[C@@](O)(Cc1cc2ccc(C#N)cc2[nH]1)C(F)(F)F)c1cc(S(C)(=O)=O)cc2c1OCC2

>  <ASSAY VALUE>
10

$$$$
>  <MOLECULE>
CC(C)(CC(O)(Cc1cc2cc(C#N)ccc2[nH]1)C(F)(F)F)c1cc(S(C)(=O)=O)cc2c1OCC2 (racemic)

>  <ASSAY VALUE>
4

$$$$
>  <MOLECULE>
CC(C)(CC(O)(Cc1cc2ccc(C#N)cc2[nH]1)C(F)(F)F)c1cc(S(C)(=O)=O)cc2c1OCC2 (racemic)

>  <ASSAY VALUE>
10

$$$$
>  <MOLECULE>
COc1ccc(F)cc1C(C)(C)C[C@@](O)(Cc1cc2cc(C#N)ccc2[nH]1)C(F)(F)F

>  <ASSAY VALUE>
10

$$$$
>  <MOLECULE>
CC(C)(CC(O)(Cc1cc2ccccc2[nH]1)C(F)(F)F)c1cc(S(C)(=O)=O)cc2c1OCC2 (racemic)

>  <ASSAY VALUE>
20

$$$$

---

- METHOD: Volume of distribution at steady state in B10.R3 mouse at 1 mg/kg, iv
- Format: ADME, organism-based
- Parameters: dose 1 mg/kg, route intravenous
- PROTOCOL CONDITIONS: in vivo, read-out: Vdss

>  <GIVEN SMILES>
CC(C)(C[C@@](O)(Cc1cc2ccc(C#N)cc2[nH]1)C(F)(F)F)c1cc(S(C)(=O)=O)cc2c1OCC2

>  <Vd>
0.9 L/kg

$$$$

---

- TARGET: UniProtKB P04150
- Sequence (P04150 whole entry): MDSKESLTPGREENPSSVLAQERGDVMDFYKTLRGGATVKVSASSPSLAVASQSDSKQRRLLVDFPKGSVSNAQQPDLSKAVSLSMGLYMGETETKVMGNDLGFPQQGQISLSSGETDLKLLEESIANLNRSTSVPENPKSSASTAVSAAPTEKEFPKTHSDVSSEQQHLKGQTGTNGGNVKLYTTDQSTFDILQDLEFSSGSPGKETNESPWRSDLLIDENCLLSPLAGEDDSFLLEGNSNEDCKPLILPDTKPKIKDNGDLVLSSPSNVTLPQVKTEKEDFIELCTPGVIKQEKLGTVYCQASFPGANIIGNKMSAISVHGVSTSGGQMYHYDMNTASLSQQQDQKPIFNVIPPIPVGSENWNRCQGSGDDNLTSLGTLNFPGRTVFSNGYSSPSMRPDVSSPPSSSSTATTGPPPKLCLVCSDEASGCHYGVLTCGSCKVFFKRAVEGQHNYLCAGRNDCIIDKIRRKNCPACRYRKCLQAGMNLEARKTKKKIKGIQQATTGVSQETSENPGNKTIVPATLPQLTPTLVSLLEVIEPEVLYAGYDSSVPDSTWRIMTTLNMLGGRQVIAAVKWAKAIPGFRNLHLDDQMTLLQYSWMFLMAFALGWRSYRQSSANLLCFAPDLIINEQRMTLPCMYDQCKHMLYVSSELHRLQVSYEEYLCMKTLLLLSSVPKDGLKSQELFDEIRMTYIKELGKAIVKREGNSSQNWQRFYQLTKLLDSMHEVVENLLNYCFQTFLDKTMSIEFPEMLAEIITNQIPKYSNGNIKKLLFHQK
- METHOD: Displacement of tetramethylrhodamine-labeled Dexamethasone from human recombinant glucocorticoid receptor expressed in baculovirus infected insect cells by fluorescence polarization assay
OUTCOME MEASURE: IC50 (nM)

>  <COMPOUND>
COc1ccc(F)cc1C(C)(C)C[C@@](O)(Cc1cc2cc(C#N)ccc2[nH]1)C(F)(F)F

>  <ASSAY VALUE>
1

$$$$
>  <COMPOUND>
CC(C)(CC(O)(Cc1cc2ccccc2[nH]1)C(F)(F)F)c1cc(S(C)(=O)=O)cc2c1OCC2 (racemic)

>  <ASSAY VALUE>
6

$$$$
>  <COMPOUND>
COc1ccc(F)cc1C(C)(C)CC(O)(Cc1cc2cccc(C)c2[nH]1)C(F)(F)F (racemic)

>  <ASSAY VALUE>
56

$$$$
>  <COMPOUND>
CC(C)(C[C@](O)(Cc1cc2ccc(C#N)cc2[nH]1)C(F)(F)F)c1cc(S(C)(=O)=O)cc2c1OCC2

>  <ASSAY VALUE>
405

$$$$
>  <COMPOUND>
COc1ccc(F)cc1C(C)(C)CC(O)(Cc1cc2cccc(C#N)c2[nH]1)C(F)(F)F (racemic)

>  <ASSAY VALUE>
27

$$$$

Origin of values: ChEMBL document CHEMBL1909618
